Biological target: Integrin alpha-V/beta-1 (Homo sapiens, UniProt P05556+P06756)
Sequence (P05556 21-798 limits assumed): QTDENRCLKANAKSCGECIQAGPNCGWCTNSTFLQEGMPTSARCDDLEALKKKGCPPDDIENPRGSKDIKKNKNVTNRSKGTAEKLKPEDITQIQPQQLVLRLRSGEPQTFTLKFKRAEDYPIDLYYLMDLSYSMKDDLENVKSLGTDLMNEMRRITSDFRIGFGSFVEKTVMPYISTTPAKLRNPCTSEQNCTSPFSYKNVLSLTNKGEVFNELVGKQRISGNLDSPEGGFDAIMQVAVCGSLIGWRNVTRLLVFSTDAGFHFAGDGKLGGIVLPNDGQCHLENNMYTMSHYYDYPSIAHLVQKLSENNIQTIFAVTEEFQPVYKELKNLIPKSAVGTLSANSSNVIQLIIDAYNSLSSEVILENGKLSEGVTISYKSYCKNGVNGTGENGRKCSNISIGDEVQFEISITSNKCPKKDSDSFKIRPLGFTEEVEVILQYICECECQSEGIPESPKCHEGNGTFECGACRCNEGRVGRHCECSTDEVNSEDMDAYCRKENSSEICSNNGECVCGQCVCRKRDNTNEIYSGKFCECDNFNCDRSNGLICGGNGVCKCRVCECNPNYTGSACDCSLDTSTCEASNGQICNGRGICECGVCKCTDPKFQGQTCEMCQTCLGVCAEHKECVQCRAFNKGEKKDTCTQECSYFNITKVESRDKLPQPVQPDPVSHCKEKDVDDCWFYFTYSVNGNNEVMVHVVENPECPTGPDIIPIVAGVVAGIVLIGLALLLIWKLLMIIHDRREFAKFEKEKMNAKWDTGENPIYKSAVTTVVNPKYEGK
Sequence (P06756 31-889 limits assumed): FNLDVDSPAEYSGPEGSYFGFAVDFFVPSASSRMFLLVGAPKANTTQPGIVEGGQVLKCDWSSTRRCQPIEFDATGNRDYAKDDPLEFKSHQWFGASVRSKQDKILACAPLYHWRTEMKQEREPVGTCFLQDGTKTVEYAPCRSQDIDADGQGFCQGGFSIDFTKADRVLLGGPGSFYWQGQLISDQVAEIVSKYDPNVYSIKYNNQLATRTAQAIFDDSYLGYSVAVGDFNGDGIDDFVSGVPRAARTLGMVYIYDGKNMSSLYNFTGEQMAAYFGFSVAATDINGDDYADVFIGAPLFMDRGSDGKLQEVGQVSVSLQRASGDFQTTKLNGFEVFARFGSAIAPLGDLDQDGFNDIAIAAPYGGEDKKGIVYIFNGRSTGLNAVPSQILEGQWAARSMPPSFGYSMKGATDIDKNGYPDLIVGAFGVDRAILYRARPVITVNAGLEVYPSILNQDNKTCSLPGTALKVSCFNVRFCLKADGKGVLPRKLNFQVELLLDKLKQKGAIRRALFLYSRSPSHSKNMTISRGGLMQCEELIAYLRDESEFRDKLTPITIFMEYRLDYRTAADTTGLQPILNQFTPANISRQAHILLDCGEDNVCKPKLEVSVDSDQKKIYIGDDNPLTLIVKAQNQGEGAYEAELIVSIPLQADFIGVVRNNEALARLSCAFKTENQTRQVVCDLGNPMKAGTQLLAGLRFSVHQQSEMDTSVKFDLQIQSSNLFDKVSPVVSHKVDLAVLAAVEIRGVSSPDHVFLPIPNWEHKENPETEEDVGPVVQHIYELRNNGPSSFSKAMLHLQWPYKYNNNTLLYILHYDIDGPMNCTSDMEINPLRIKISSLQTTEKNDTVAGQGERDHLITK
Sequence (P06756 891-1048 limits assumed): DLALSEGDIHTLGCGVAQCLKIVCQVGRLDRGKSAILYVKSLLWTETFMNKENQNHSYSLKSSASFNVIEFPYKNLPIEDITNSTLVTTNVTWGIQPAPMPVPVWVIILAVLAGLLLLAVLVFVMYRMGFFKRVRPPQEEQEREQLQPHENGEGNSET
Experiment: Inhibition of integrin alphaVbeta1 (unknown origin)-mediated CHO cell adhesion to fibronectin preincubated for 15 to 30 mins followed by 60 min incubation for adhesion by crystal violet staining based cell adhesion assay
Details: read-out: pIC50 (converted)
readout-label: IC50 (nM)

Per the records, this compound ( "N=C(N)NCCCCC(=O)Nc1ccc(C[C@H](NC(=O)[C@@H]2CCCCN2S(=O)(=O)c2ccccc2)C(=O)O)cc1" ) has IC50 equal to 0.316

Record summary for "O=C(CCCCNC1=NCCN1)Nc1ccc(C[C@H](NC(=O)[C@@H]2CCCN2S(=O)(=O)c2ccccc2)C(=O)O)cc1" : reported IC50 = 0.316

----------
Biological target: Integrin alpha-V/beta-1 (Homo sapiens, UniProt P05556+P06756)
Assay: Inhibition of integrin alphaVbeta1 (unknown origin)-mediated CHO cell adhesion to fibronectin preincubated for 15 to 30 mins followed by 60 min incubation for adhesion by crystal violet staining based cell adhesion assay
Conditions: read-out: IC50
readout-label: IC50 (nM)

Here is how some compounds turned out for IC50.
Quick note, IC50 for "N=C(N)NCCCCC(=O)Nc1ccc(C[C@H](NC(=O)[C@@H]2CCCN2S(=O)(=O)c2ccc3ccccc3c2)C(=O)O)cc1" landed at 2500

For record "N=C(N)NCCCCC(=O)Nc1ccc(C[C@H](NC(=O)[C@@H]2CCCN2S(=O)(=O)c2cc(F)cc(F)c2)C(=O)O)cc1" the listed IC50 is 40

The value of IC50 measured for the compound "N=C(N)NCCCCC(=O)Nc1ccc(C[C@H](NC(=O)[C@@H]2CSCN2S(=O)(=O)c2ccccc2)C(=O)O)cc1" turned out to be 16

I. N=C(N)NC12CC3CC(C1)CC(C(=O)Nc1ccc(C[C@H](NC(=O)[C@@H]4CCCN4S(=O)(=O)c4ccccc4)C(=O)O)cc1)(C3)C2
II. O=C(CCCCNC1=NCCCN1)Nc1ccc(C[C@H](NC(=O)[C@@H]2CCCN2S(=O)(=O)c2ccccc2)C(=O)O)cc1
III. Cc1ccc(NCCCC(=O)Nc2ccc(C[C@H](NC(=O)[C@@H]3CCCN3S(=O)(=O)c3ccccc3)C(=O)O)cc2)nc1
IV. N=C(N)NCCCCC(=O)Nc1ccc(C[C@H](NC(=O)[C@@H]2CCCN2S(=O)(=O)c2cccs2)C(=O)O)cc1
query: Hi! Can you put these in order of IC50, lowest number first? Give the order by naming the labels one after another as requested.
result: II, IV, III, I

----------
Molecular target: Integrin alpha-V/beta-1 (Homo sapiens, UniProt P05556+P06756)
Assay: Inhibition of integrin alphaVbeta1 (unknown origin)-mediated CHO cell adhesion to fibronectin preincubated for 15 to 30 mins followed by 60 min incubation for adhesion by crystal violet staining based cell adhesion assay
Details: cho; read-out: IC50
pIC50: −log10 of the molar value.
The entries below come with measured pIC50 values attached.

Summary for this compound, "Cc1cc(C)c(S(=O)(=O)N2CCC[C@H]2C(=O)N[C@@H](Cc2ccc(NC(=O)CCCCNC(=N)N)cc2)C(=O)O)c(C)c1" : pIC50 is < 5.00

New cases:
compound "C[C@@]1(C(=O)N[C@@H](Cc2ccc(NC(=O)CCCCNC(=N)N)cc2)C(=O)O)CCCN1S(=O)(=O)c1ccccc1" , pIC50 observed: < 5.00
